- target.system: T1, beta-catenin in DLD1 TCF/LEF luciferase reporter cells (UniProt P35222 1-781)
- T1 sequence (looked up): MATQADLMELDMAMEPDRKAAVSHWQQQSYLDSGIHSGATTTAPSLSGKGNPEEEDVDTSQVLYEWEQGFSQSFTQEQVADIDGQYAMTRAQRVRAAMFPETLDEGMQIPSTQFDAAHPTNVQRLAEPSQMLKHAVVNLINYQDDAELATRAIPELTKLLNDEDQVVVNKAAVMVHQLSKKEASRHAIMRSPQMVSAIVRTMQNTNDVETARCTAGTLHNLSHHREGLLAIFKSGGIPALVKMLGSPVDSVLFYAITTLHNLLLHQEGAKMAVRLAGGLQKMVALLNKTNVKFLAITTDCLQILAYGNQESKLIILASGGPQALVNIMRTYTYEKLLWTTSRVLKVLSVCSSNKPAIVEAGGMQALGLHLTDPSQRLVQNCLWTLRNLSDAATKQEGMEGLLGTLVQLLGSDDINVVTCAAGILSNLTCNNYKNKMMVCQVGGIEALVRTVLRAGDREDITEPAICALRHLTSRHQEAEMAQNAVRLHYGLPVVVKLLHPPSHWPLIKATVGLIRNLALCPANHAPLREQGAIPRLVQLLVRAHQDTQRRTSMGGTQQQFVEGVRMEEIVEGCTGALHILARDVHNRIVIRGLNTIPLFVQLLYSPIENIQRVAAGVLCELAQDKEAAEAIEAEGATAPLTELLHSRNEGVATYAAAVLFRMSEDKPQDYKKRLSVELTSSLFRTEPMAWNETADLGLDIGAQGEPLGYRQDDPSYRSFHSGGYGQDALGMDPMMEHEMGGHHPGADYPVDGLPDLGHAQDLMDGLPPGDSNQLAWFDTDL
- test.protocol: cell-based or functional assay
Starred links: 1 amine or outer side, 2 acyl side, 3 side chain; linkers in the order of their positions; H or OH if unused. Positions of bridges follow the written chain, without caps; N, C: chain ends. Non-standard residues stand in square brackets, D forms with d. Primed or numbered codes have the meaning given here. PyrS2″ = (S)-3-amino-1-((pent-4-en-1-yloxy)carbonyl)pyrrolidine-3-carboxylic acid (stapling residue), C=CCCCOC(=O)N1CC[C@@](N[*:1])(C(=O)[*:2])C1; B5(18) = 2,2-bis(4-pentenyl)glycine (2-amino-2-(pent-4-en-1-yl)hept-6-enoic acid), stitching residue, C=CCCCC(CCCC=C)(N[*:1])C(=O)[*:2]; TfeGA = (S)-2-amino-3-((carboxymethyl)(2,2,2-trifluoroethyl)amino)propanoic acid, O=C([C@H](CN(CC(=O)[*:3])CC(F)(F)F)N[*:1])[*:2]; B5(3) = 2,2-bis(4-pentenyl)glycine (stitching residue), C=CCCCC(CCCC=C)(N[*:1])C(=O)[*:2]; Phe(2-Cl) = N[C@@H](Cc1ccccc1Cl)C(=O)O; Bta = N[C@@H](Cc1csc2ccccc12)C(=O)O; αAllylPro = C=CC[C@@]1(C(=O)O)CCCN1; tBuAla = CC(C)(C)C[C@H](N)C(=O)O; 3Thi = N[C@@H](Cc1ccsc1)C(=O)O; S8 = C=CCCCCCC[C@](C)(N)C(=O)O; hSer = N[C@@H](CCO)C(=O)O

[
  {
    "binder": "Ac-[αAllylPro]D[tBuAla][B5(3)][3Thi][TfeGA]AAFN[PyrS2″]D[Bta]Q-NH2 (staple 1-4, 4-11) [I-1001]",
    "readout.units": "µM",
    "limit.sign": ">",
    "DLD1 reporter assay Abs IC50": 20
  },
  {
    "binder": "Ac-[αAllylPro]D[tBuAla][B5(18)]DDAAFS[PyrS2″][Phe(2-Cl)][Bta]S-NH2 (staple 1-4, 4-11) [I-1019]",
    "readout.units": "µM",
    "limit.sign": "=",
    "DLD1 reporter assay Abs IC50": 8.3
  },
  {
    "binder": "Ac-[αAllylPro]D[tBuAla][B5(3)]D[TfeGA]AAFS[S8][Phe(2-Cl)][Bta][hSer]-NH2 (staple 1-4, 4-11; also: later eluting isomer) [I-999]",
    "readout.units": "µM",
    "limit.sign": "=",
    "DLD1 reporter assay Abs IC50": 11.1
  }
]
